FYI, the data here is from paper PMC8066102.

- measurement_notes: pKa determination by spectrophotometric titration
- Type: physicochemical
- measurement_conditions: 23 aqueous buffer solutions, pH 1.5-11, pH 1.5, 0.02 mM compound, pH 1.5-11, UV-vis, principal component analysis; read-out: pKa 1
recorded_metric: pKa

# molecule, pKa
data = [
    ("Cc1ccc([N+](=O)[O-])c2c(NCCCN(C)CCCNc3ccc4ncn5c6ccccc6c(=O)c3c45)c3ccccc3nc12 [C-2053]", 2.19),
    ("Cc1ccc([N+](=O)[O-])c2c(NCCCN(C)CCCNc3ccc4ncn5c6ccc(O)cc6c(=O)c3c45)c3ccccc3nc12 [C-2045]", 2.33),
    ("CN(CCCNc1c2ccccc2nc2cccc([N+](=O)[O-])c12)CCCNc1ccc2ncn3c4ccccc4c(=O)c1c23 [C-2028]", 2.22),
]

====

- target_or_test_system: UGT2B7 (Homo sapiens, UniProt P16662)
- Construct: purchased Corning, NY, USA (through DIAG-MED, Poland); host or cells: baculovirus-insect cells (Supersomes)
- Sequence (P16662 24-529): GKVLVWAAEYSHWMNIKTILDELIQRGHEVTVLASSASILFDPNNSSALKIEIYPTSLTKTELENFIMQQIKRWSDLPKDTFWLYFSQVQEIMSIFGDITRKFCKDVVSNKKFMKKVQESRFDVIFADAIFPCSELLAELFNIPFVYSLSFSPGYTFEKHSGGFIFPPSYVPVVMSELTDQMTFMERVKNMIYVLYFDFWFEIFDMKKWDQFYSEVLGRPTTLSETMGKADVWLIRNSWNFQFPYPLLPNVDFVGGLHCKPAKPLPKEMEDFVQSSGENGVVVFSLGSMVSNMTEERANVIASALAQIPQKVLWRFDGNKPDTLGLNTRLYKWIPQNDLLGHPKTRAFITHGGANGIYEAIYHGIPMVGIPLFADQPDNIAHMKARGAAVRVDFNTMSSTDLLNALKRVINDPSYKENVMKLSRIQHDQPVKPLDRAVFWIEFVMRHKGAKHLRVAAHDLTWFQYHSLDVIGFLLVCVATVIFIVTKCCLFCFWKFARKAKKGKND
- measurement_notes: Modulation of UGT2B7 activity (epirubicin glucuronidation)
- Assay type: in vitro ADME
- measurement_conditions: human, UGT2B7 isoenzyme preparation, pH 7.4, probe epirubicin (EPI); epirubicin substrate, 0.05 mM compound
recorded_metric: inhibition at 30 min, 0.05 mM (%)
I only need the number, in %, no unit after it.

Ask: Which measured inhibition at 30 min, 0.05 mM value corresponds to `CN(CCCNc1c2ccccc2nc2cccc([N+](=O)[O-])c12)CCCNc1ccc2ncn3c4ccccc4c(=O)c1c23` ?
Reply: 90

====

- target_or_test_system: UGT2B15 (Homo sapiens)
- Construct: purchased Corning, NY, USA (through DIAG-MED, Poland); host or cells: baculovirus-insect cells (Supersomes)
- Sequence (P54855 24-530): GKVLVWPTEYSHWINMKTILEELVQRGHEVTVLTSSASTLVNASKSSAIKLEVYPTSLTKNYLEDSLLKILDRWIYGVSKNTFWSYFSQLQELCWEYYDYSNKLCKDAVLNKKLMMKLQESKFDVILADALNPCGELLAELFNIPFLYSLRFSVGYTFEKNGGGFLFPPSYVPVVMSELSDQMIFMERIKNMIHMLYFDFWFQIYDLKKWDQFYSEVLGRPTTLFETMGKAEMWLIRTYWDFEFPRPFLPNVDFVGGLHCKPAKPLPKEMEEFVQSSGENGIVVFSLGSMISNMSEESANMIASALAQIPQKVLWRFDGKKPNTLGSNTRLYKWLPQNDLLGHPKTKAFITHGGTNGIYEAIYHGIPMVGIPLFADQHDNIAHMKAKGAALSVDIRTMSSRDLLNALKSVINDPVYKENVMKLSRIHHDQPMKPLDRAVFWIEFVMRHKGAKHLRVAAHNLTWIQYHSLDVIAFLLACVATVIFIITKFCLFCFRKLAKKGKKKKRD
- measurement_notes: Modulation of UGT2B15 activity (TFK glucuronidation)
- Assay type: in vitro ADME
- measurement_conditions: UGT2B15 isoenzyme preparation, pH 7.4, probe TFK, TFK substrate, lowest concentrations
- Method: Isoenzyme activity was studied by the rate measurement of β-hydroxylation of testosterone (specific substrate for P4503A4) and of glucuronidation of specific substrates, namely, SN-38 (UGT1A1), EPI (UGT2B7),) and TFK (UGT2B15). […] Supernatant fractions were analyzed by HPLC. For more accurate investigation of P4503A4 inhibition by C-2045 and C-2053 the β-hydroxylation rate was measured at various concentrations of testosterone: 0.02, 0.05, 0.1 and 0.2 mM. […]
recorded_metric: inhibition at 30 min

Ask: // returns reported inhibition at 30 min for input CN(CCCNc1c2ccccc2nc2cccc([N+](=O)[O-])c12)CCCNc1ccc2ncn3c4ccccc4c(=O)c1c23 [C-2028]
Reply: ~30%

====

- measurement_notes: pKa determination by spectrophotometric titration
- Format: physicochemical
- measurement_conditions: 23 aqueous buffer solutions, pH 1.5-11, pH 1.5, 0.02 mM compound, pH 1.5-11, UV-vis, principal component analysis; read-out: pKa 2
recorded_metric: pKa

# entry_smiles, reported_value
records = [
    ("Cc1ccc([N+](=O)[O-])c2c(NCCCN(C)CCCNc3ccc4ncn5c6ccccc6c(=O)c3c45)c3ccccc3nc12", 6.19),
    ("CN(CCCNc1c2ccccc2nc2cccc([N+](=O)[O-])c12)CCCNc1ccc2ncn3c4ccccc4c(=O)c1c23", 6.01),
    ("Cc1ccc([N+](=O)[O-])c2c(NCCCN(C)CCCNc3ccc4ncn5c6ccc(O)cc6c(=O)c3c45)c3ccccc3nc12", 6.37),
]

====

- target_or_test_system: UGT1A1 (Homo sapiens, UniProt P22309)
- Sequence (P22309 26-533): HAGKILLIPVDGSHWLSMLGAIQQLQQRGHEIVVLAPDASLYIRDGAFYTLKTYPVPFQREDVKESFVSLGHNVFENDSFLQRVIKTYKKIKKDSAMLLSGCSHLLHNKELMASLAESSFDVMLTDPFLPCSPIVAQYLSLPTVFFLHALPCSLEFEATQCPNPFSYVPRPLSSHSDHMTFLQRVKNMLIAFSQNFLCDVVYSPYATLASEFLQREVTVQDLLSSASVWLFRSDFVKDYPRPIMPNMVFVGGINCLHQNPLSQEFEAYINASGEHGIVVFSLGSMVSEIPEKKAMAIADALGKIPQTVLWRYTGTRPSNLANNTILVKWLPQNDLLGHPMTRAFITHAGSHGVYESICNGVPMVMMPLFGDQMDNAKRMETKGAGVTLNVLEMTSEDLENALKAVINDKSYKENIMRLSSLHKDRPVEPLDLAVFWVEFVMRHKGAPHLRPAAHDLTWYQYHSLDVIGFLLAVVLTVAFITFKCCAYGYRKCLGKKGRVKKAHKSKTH
- measurement_notes: Modulation of UGT1A1 activity (SN-38 glucuronidation)
- Type: in vitro ADME
- Set-up: purchased Corning, NY, USA (through DIAG-MED, Poland); host or cells: baculovirus-insect cells (Supersomes)
- measurement_conditions: human, UGT1A1 isoenzyme preparation, pH 7.4, probe SN-38; SN-38 substrate, higher concentrations of compound; read-out: inhibition rate of UGT1A1
recorded_metric: inhibition at 30 min

Ask: For the compound shown here, `CN(CCCNc1c2ccccc2nc2cccc([N+](=O)[O-])c12)CCCNc1ccc2ncn3c4ccccc4c(=O)c1c23` , give the reported inhibition at 30 min.
Reply: 65 to 70%

====

- target_or_test_system: UGT2B15 (Homo sapiens)
- Construct: purchased Corning, NY, USA (through DIAG-MED, Poland); host or cells: baculovirus-insect cells (Supersomes)
- measurement_notes: Modulation of UGT2B15 activity (TFK glucuronidation)
- Format: in vitro ADME
- measurement_conditions: UGT2B15 isoenzyme preparation, pH 7.4, probe TFK, TFK substrate, highest concentration
recorded_metric: inhibition at 30 min, 0.05 mM (%)
Numeric only. Scale: %

Ask: Which inhibition at 30 min, 0.05 mM reading was recorded for the molecule CN(CCCNc1c2ccccc2nc2cccc([N+](=O)[O-])c12)CCCNc1ccc2ncn3c4ccccc4c(=O)c1c23 [C-2028] ?
Reply: 80
